Experiment: Lipophilicity determined as logarithm of the partition coefficient in the alkane/water system
Conditions: octanol/water
Lab note: compare Log PNalk with 0.4, writing rule met if less and rule not met if equal or more.

(Q) Bench note: check whether `COc1ccc(C(=O)O)cc1` shows Log PNalk below 0.4
(A) rule met

(Q) Given the entry `Cc1ccc(C)c(O)c1` , would its reported Log PNalk be below 0.4?
(A) rule met

(Q) Please indicate whether the reported Log PNalk of `CN(C)CCCN1c2ccccc2Sc2ccc(Cl)cc21` is strictly below 0.4.
(A) rule not met

(Q) Strictly below 0.4: is that where Log PNalk of `Nc1ccc(Cl)cc1` sits?
(A) rule not met

(Q) Consider `Oc1ccc2ccccc2c1` . Does its Log PNalk lie strictly below 0.4?
(A) rule met

(Q) Please indicate whether the reported Log PNalk of COCCc1ccc(OCC(O)CNC(C)C)cc1 (configuration not stated) is strictly below 0.4.
(A) rule met

(Q) Determine if CN(C)CCC(c1ccc(Cl)cc1)c1ccccn1 (configuration not stated) shows Log PNalk strictly lower than 0.4.
(A) rule not met

(Q) # strict comparison: is reported Log PNalk < 0.4? input = `Nc1ccc(/N=N/c2ccccc2)c(N)n1`
(A) rule not met

(Q) Report whether reported Log PNalk is lower than 0.4 (strictly) for CC1CCc2cc(F)cc3c(=O)c(C(=O)O)cn1c23 (configuration not stated)
(A) rule met

(Q) I'd appreciate it if you could check whether `CS(=O)(=O)c1ccccc1` has Log PNalk smaller than 0.4.
(A) rule met

(Q) Say whether its Log PNalk is strictly beneath 0.4. Entry: CC(C)(C)c1ccc(C(O)CCCN2CCC(C(O)(c3ccccc3)c3ccccc3)CC2)cc1 (configuration not stated)
(A) rule not met

(Q) Could you please tell me whether Log PNalk recorded for `c1ccc2ncccc2c1` is less than 0.4?
(A) rule not met

Origin of values: ChEMBL document CHEMBL1143634
